Data provenance is paper PMC8533333.

This section presents compounds with their documented inhibition at 10 µM values.
Target: Human recombinant MAO-B (hMAO-B) (Homo sapiens, UniProt P27338)
Construct: purchased Sigma Aldrich; host or cells: insect cells
Sequence (P27338 whole entry): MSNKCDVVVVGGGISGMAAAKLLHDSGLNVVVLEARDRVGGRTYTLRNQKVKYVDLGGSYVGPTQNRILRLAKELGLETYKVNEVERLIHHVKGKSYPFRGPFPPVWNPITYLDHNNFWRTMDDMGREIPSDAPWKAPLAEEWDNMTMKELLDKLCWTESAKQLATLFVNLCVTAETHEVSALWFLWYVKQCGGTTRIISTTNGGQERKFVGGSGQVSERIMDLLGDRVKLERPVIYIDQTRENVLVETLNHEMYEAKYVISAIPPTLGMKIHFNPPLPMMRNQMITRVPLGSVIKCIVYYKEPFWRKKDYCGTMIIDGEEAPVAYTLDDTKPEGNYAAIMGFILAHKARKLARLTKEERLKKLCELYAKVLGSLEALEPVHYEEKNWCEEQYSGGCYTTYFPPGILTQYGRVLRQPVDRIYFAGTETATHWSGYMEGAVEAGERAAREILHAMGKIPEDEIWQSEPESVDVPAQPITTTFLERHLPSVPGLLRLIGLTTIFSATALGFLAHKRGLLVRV
Test: MAO-B enzyme assay (Amplex Red, resorufin fluorescence)
Type: biochemical
Details: single dose 10 µM

Compound	inhibition at 10 µM, %
O=C(Nc1ccc2[nH]ccc2c1)c1cccc(F)c1 [3i, 3-Fluoro-N-(1H-indol-5-yl)benzamide]	35.3
O=C(Nc1ccc2[nH]ccc2c1)c1cccc(C(F)(F)F)c1	85.1
O=C(Nc1ccc2[nH]ccc2c1)c1ccccc1Cl [3o, 2-Chloro-N-(1H-indol-5-yl)benzamide]	2.39
O=C(Nc1ccc2[nH]ccc2c1)c1ccc(Br)cc1 [3c, 4-Bromo-N-(1H-indol-5-yl)benzamide]	37.1
O=C(Nc1ccc2[nH]ccc2c1)c1ccc(Cl)cc1 [3p, 4-Chloro-N-(1H-indol-5-yl)benzamide]	58
O=C(Nc1ccc2[nH]ccc2c1)c1ccccc1Br [3b, 2-Bromo-N-(1H-indol-5-yl)benzamide]	0.27
O=C(Nc1ccc2[nH]ccc2c1)c1c(Cl)cccc1Cl [3x, 2,6-Dichloro-N-(1H-indol-5-yl)benzamide]	0.89
O=C(Nc1ccc2[nH]ccc2c1)c1ccc(F)cc1C(F)(F)F	1.49

---

Target: Human recombinant MAO-B (hMAO-B) (Homo sapiens)
Construct: purchased Sigma Aldrich; host or cells: insect cells
Assay: MAO-B enzyme assay (Amplex Red, resorufin fluorescence)
Assay type: biochemical
Conditions: single dose 10 µM
Respond with true (1) for inhibition at 10 µM values of 40% and above, false (0) for values below.

Compound	Target of assay	Group
O=C(Nc1ccc2[nH]ccc2c1)c1ccccc1 [3a, N-(1H-indol-5-yl)benzamide]	Human recombinant MAO-B (hMAO-B) (Homo sapiens)	false (0)
CC(C)(C)c1ccc(C(=O)Nc2ccc3[nH]ccc3c2)cc1	Human recombinant MAO-B (hMAO-B) (Homo sapiens)	true (1)
O=C(Nc1ccc2[nH]ccc2c1)c1cccc(Br)c1 [3r, 3-Bromo-N-(1H-indol-5-yl)benzamide]	Human recombinant MAO-B (hMAO-B) (Homo sapiens)	true (1)
O=C(Nc1ccc2[nH]ccc2c1)c1cc([N+](=O)[O-])cc([N+](=O)[O-])c1 [3e, N-(1H-indol-5-yl)-3,5-dinitrobenzamide]	Human recombinant MAO-B (hMAO-B) (Homo sapiens)	false (0)
O=C(Nc1ccc2[nH]ccc2c1)c1cccc([N+](=O)[O-])c1 [3f, N-(1H-indol-5-yl)-3-nitrobenzamide]	Human recombinant MAO-B (hMAO-B) (Homo sapiens)	true (1)
O=C(Nc1ccc2[nH]ccc2c1)c1cccc(OC(F)(F)F)c1	Human recombinant MAO-B (hMAO-B) (Homo sapiens)	true (1)
O=C(Nc1ccc2[nH]ccc2c1)c1c(F)cccc1F [3h, 2,6-Difluoro-N-(1H-indol-5-yl)benzamide]	Human recombinant MAO-B (hMAO-B) (Homo sapiens)	false (0)
O=C(Nc1ccc2[nH]ccc2c1)c1ccc([N+](=O)[O-])cc1 [3g, N-(1H-indol-5-yl)-4-nitrobenzamide]	Human recombinant MAO-B (hMAO-B) (Homo sapiens)	true (1)
O=C(Nc1ccc2[nH]ccc2c1)c1ccc(C(F)(F)F)cc1	Human recombinant MAO-B (hMAO-B) (Homo sapiens)	true (1)
O=C(Nc1ccc2[nH]ccc2c1)c1cccc(Cl)c1 [3n, 3-Chloro-N-(1H-indol-5-yl)benzamide]	Human recombinant MAO-B (hMAO-B) (Homo sapiens)	true (1)
N#Cc1cccc(C(=O)Nc2ccc3[nH]ccc3c2)c1 [3m, 3-Cyano-N-(1H-indol-5-yl)benzamide]	Human recombinant MAO-B (hMAO-B) (Homo sapiens)	false (0)
O=C(Nc1ccc2[nH]ccc2c1)c1ccc(Cl)cc1Cl [3d, 2,4-Dichloro-N-(1H-indol-5-yl)benzamide]	Human recombinant MAO-B (hMAO-B) (Homo sapiens)	false (0)
O=C(Nc1ccc2[nH]ccc2c1)c1cc(Cl)cc(Cl)c1 [3w, 3,5-Dichloro-N-(1H-indol-5-yl)benzamide]	Human recombinant MAO-B (hMAO-B) (Homo sapiens)	true (1)
O=C(Nc1ccc2[nH]ccc2c1)c1ccc(F)cc1 [3j, 4-Fluoro-N-(1H-indol-5-yl)benzamide]	Human recombinant MAO-B (hMAO-B) (Homo sapiens)	true (1)
O=C(Nc1ccc2[nH]ccc2c1)c1ccc(OC(F)(F)F)cc1	Human recombinant MAO-B (hMAO-B) (Homo sapiens)	true (1)
O=C(Nc1ccc2[nH]ccc2c1)c1ccccc1F [3k, 2-Fluoro-N-(1H-indol-5-yl)benzamide]	Human recombinant MAO-B (hMAO-B) (Homo sapiens)	false (0)
